test: HD-MB03 medulloblastoma cell growth inhibition, synergistic combos for chromothripsis tumors, BGB or cisplatin IC20 combos (AID 1671455); settings: HD-MB03 medulloblastoma cells, measured here: combo with BGB at IC20, at 0.5 µM, stronger effect = higher value;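 further: 0% = vehicle DMSO and 100% = high DMSO as cytotoxic control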
Each item that follows carries a reported inhibition.
Just the number in %, nothing appended.

Data request: Reported inhibition, molecule Cc1ccc2nc(N)[nH]c(=O)c2c1Sc1ccncc1 : ____
Data returned: -11.9

Data request: Reported inhibition, molecule CCn1nc(C(=O)O)c(=O)c2cc3c(cc21)OCO3 : ____
Data returned: -9.5

Data request: Reported inhibition, molecule CN1C[C@@H]2C[C@H]1CN2c1cc2c(cc1F)c(=O)c(C(=O)O)cn2C1CC1 : ____
Data returned: -11.6

###

assay: antimalarial activity against Dd2 strain (AID 2302);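 further: 0% = DMSO untreated growth and 100% = chloroquine plus artemisinin killed control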; conditions: P. falciparum Dd2 in RBCs, LDH growth readout, 72 h; at 2 µM; stronger effect = higher value
metric.name: growth inhibition (%)
Just the number in %, nothing appended.

The following compounds have reported results that may help.
OC(CN1CCN(c2cccc(Cl)c2)CC1)C(c1ccccc1)c1ccccc1 (stereo not given) ... 4
COc1ccc(C[C@H](N)C(=O)N[C@H]2[C@@H](O)[C@H](n3cnc4c(N(C)C)ncnc43)O[C@@H]2CO)cc1 ... 91

Data request: Reported growth inhibition, compound CCc1cc2c(N)nc(N)nc2nc1-c1ccccc1 : ____
Data returned: -1

Data request: Reported growth inhibition, compound CC(C)(C)C1CCc2nc(N)nc(N)c2C1 (stereo not given) : ____
Data returned: 38

Data request: Reported growth inhibition, compound COc1cccc(-c2ccc3ccnc(N)c3c2)c1 : ____
Data returned: 93

###

Each item that follows carries a reported viability decrease (inhibition).
test: CellTiter-Glo luminescent readout of SW480 viability loss, NPC library primary (AID 1117343); conditions: CellTiter-Glo luminescence; at 20 µM (top of the series) unless noted
Just the number in %, nothing appended.

Data request: Reported viability decrease (inhibition), compound CCCCOc1cc(C(=O)OCCN(CC)CC)ccc1N : ____
Data returned: 51.8

Data request: Reported viability decrease (inhibition), compound Clc1ccc(C(Cn2ccnc2)OCc2ccsc2Cl)c(Cl)c1 (centres undefined) : ____
Data returned: 123

Data request: Reported viability decrease (inhibition), compound CCC1NC(=O)c2cc(S(N)(=O)=O)c(Cl)cc2N1 (centres undefined) : ____
Data returned: -10.9

###

Each item that follows carries a reported inhibition.
test: growth inhibition of RCMB18 medulloblastoma cells, cell-based, cisplatin and BGB IC40 combos (AID 1671462); details: cisplatin combo, at 5 µM, stronger effect = higher value;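 further: cells exposed to compound for four days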
Just the number in %, nothing appended.

The following compounds have reported results that may help.
COc1c2ccoc2cc2oc(=O)ccc12 ... 17.9
N=c1ccn2c(n1)O[C@H]1[C@H](O)[C@@H](CO)O[C@H]12 ... 61
O=c1[nH]c(=O)n([C@H]2C[C@H](O)[C@@H](CO)O2)cc1Br ... 28.1
CN1CCN(c2c(F)cc3c(=O)c(C(=O)O)cn(CCF)c3c2F)CC1 ... 48
O=C(CCCCCCC(=O)Nc1ccccc1)NO ... 93.4

Data request: Reported inhibition, compound O=c1[nH]c(=O)n([C@H]2C[C@H](O)[C@@H](CO)O2)cc1C(F)(F)F : ____
Data returned: -41.9

Data request: Reported inhibition, compound COC1C(OC(N)=O)C(O)C(Oc2ccc3c(O)c(NC(=O)c4ccc(O)c(CC=C(C)C)c4)c(=O)oc3c2C)OC1(C)C (stereo not drawn) : ____
Data returned: 18.1

Data request: Reported inhibition, compound O=c1cc[nH]c(=O)[nH]1 : ____
Data returned: -19.1

Data request: Reported inhibition, compound Nc1ccc2cc3ccc(N)cc3nc2c1 : ____
Data returned: 83.1

###

molecular target: 6-phosphogluconate dehydrogenase, decarboxylating (Homo sapiens); test: 6PGD enzyme inhibitors, primary screen, biochemical, human, recombinant enzyme, NADPH absorbance (AID 1159550); conditions: recombinant 6PGD, NADPH absorbance 341 nm; at 10 µM; stronger effect = higher value
Where a SMILES comes first, the peptide text is derived from it. Bridges are numbered along the chain shown (N, C = ends). [ ]: non-standard residue; d: D form. The star is where a group is joined. ξ: configuration not given here. ξDab(CH2SO3H) = NC(CCNCS(=O)(=O)O)C(=O)O; Octanoyl(6-Me) = CCC(C)CCCCC(=O)*; Dab = NCC[CH](N)C(=O)O
metric.name: inhibition (%)
Just the number in %, nothing appended.

O=c1c2ccccc2oc2ccccc12 ... 0.222
CCC(C)CCCCC(=O)NC(CCNCS(=O)(=O)O)C(=O)NC(C(=O)NC(CCNCS(=O)(=O)O)C(=O)NC1CCNC(=O)C(C(C)O)NC(=O)C(CCNCS(=O)(=O)O)NC(=O)C(CCNCS(=O)(=O)O)NC(=O)C(CC(C)C)NC(=O)C(CC(C)C)NC(=O)C(CCNCS(=O)(=O)O)NC1=O)C(C)O (stereo unspecified) ({Octanoyl(6-Me)}-[ξDab(CH2SO3H)]T[ξDab(CH2SO3H)][Dab][ξDab(CH2SO3H)]LL[ξDab(CH2SO3H)][ξDab(CH2SO3H)]T; lactam 4-C; configuration not given here) ... 17.5
CC(=O)[C@@]1(O)CC[C@H]2[C@@H]3C=C(Cl)C4=CC(=O)[C@@H]5C[C@@H]5[C@]4(C)[C@H]3CC[C@@]21C ... 3.58
CC(=O)O[C@H]1CC[C@]2(C)[C@H]3C(=O)C=C4[C@@H]5[C@@H](C)[C@H](C)CC[C@]5(C(=O)O)CC[C@@]4(C)[C@]3(C)CC[C@H]2C1(C)C ... 4.87
C[C@H](CCC(=O)O)C1CC[C@H]2[C@@H]3CC[C@H]4C[C@H](O)CC[C@]4(C)[C@H]3C[C@H](O)[C@]12C (stereo partly specified) ... -1.43
N[C@H](Cc1ccccc1)C(=O)O ... 6.57
CC(=O)Oc1ccccc1C(=O)Oc1ccccc1C(=O)O ... 14.2
COc1cc(O)ccc1C(C)=O ... 12.4
CCCCC[C@H](CC(=O)O)C(=O)O ... 0.671
CC(=O)Oc1ccc2c(c1C(C)C)CCC1C(C)(C)CCCC21C (stereo unspecified) ... 2.45

Data request: Reported inhibition, compound O=C1C[C@@H](c2ccc(O)cc2)Oc2cc(O)cc(O)c21 : ____
Data returned: -3.37

Data request: Reported inhibition, compound COc1ccc2c(c1)OCC(Cc1ccc(OC)c(OC)c1)C2=O (stereo unspecified) : ____
Data returned: 8.36

Data request: Reported inhibition, compound CC(=O)[C@@]1(O)CCC2C3CCC4=CC(=O)CC[C@]4(C)C3CC[C@@]21C (stereo partly specified) : ____
Data returned: 7.07

Data request: Reported inhibition, compound C/C=C(/C)C(=O)O[C@@H]1c2c(ccc3ccc(=O)oc23)OC(C)(C)[C@@H]1OC(C)=O : ____
Data returned: 4.61

Data request: Reported inhibition, compound CCC1(C2OC(C3OC(O)(CO)C(C)CC3C)CC2C)CCC(C2(C)CCC3(CC(O)C(C)C(C(C)C(OC)C(C)C(=O)O)O3)O2)O1 (stereo unspecified) : ____
Data returned: 3.18

Data request: Reported inhibition, compound COc1cc(O)c2c(=O)cc(-c3ccc(O)cc3)oc2c1 : ____
Data returned: 6.18

###

tested on: R275C/Slo1WT/beta2; assay: modulators of BK channel variants, profiling panel, selectivity assay, cell-based, U2OS BacMam, thallium flux, beta subunits (AID 1259406); details: at 30 µM;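 further: initial slope of Thallos dye fluorescence rise after thallium is added; log ratio against the mean of 0.3% DMSO vehicle wells on the same plate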
Rule: log fold change Tl+ flux of -0.01 or more gives Fulfilled; anything lower gives Not fulfilled.

Data request: Is log fold change Tl+ flux for CC(C)NCC(O)COc1cccc2ccccc12 (configuration not stated) at or above -0.01?
Data returned: Not fulfilled

###

test: enhancers of glutamate uptake in motor neurons, MN-1 cell line (AID 1612); conditions: MN-1 motor neuron cells, stronger effect = higher value;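 further: tested at 1 µM final; 0% = mean of DMSO vehicle wells on each plate; positive means more glutamate uptake than control and negative means less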
metric.name: glutamate uptake change (%)
Just the number in %, nothing appended.

O=C(O)c1cc(=O)c2ccccc2[nH]1 ... -1.73
COc1c(OC)c2occc2c2oc(=O)ccc12 ... -3.15
CC[C@H]1OC(=O)[C@H](C)[C@@H](O[C@H]2C[C@@](C)(OC)[C@@H](O)[C@H](C)O2)[C@H](C)[C@@H](O[C@@H]2O[C@H](C)C[C@H](N(C)C)[C@H]2O)[C@](C)(O)C[C@@H](C)/C(=N\OCOCCOC)[C@H](C)[C@@H](O)[C@]1(C)O ... 2.1

Read the next record carefully.
Data request: Reported glutamate uptake change, compound CC(=O)c1c(O)c(C)c(O)c2c1OC1=CC(=O)C(C(C)=O)C(=O)C12C (centres undefined) : ____
Data returned: -5.26
